Binding Level sample 2 (RU) values for the binders below.
Target: T1, recombinant human OX40L (extracellular domain, R&D Systems) (human, UniProt P23510 51-183)
T1 construct: also called hOX40L; rec. hOX40L
T1 sequence: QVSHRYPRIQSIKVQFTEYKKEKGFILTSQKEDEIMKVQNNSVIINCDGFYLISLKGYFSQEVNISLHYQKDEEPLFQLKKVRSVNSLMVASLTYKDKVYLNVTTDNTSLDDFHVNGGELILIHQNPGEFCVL
Assay: SPR, after second injection of buffer HBS-EP+
Please reply with the bare figure in RU and do not write the unit itself.

Observe how each entry below is paired with its result.
binder	result.value
OX40L15B07 (VHH, monovalent Nanobody from E. coli; not shown: C-terminal c-myc and His6 tag) VHH: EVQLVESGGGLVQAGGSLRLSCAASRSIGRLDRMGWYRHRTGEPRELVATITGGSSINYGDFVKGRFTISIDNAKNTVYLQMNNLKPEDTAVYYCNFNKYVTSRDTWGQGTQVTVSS	155
OX40L19D08 (VHH, monovalent Nanobody from E. coli; not shown: C-terminal c-myc and His6 tag) VHH: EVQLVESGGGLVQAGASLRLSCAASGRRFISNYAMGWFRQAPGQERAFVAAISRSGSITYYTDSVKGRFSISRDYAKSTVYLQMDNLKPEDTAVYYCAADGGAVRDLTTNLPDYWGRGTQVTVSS	184
OX40L01E10 (VHH, monovalent Nanobody from E. coli; not shown: C-terminal c-myc and His6 tag) VHH: EVQLVESGGGLVQAGDSLRLSCAASGLTFSSFAMGWFRQAPGKEREFVAAISRSGYGTSEADSVRDRFIISRDNAKNTVTLHLSRLKPEDTAVYYCAAEHTLGRPSRSQINYLYWGQGTQVTVSS	185
OX40L01E07 (VHH, monovalent Nanobody from E. coli; not shown: C-terminal c-myc and His6 tag) VHH: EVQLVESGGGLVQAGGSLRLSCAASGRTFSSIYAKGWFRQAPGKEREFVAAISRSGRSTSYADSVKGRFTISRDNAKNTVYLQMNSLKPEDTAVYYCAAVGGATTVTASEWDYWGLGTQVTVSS	212
OX40L01B11 (VHH, monovalent Nanobody from E. coli; not shown: C-terminal c-myc and His6 tag) VHH: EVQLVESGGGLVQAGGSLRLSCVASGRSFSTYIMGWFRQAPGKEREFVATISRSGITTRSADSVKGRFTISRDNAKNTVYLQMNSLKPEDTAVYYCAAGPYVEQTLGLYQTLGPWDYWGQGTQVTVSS	383
OX40L18E09 (VHH, monovalent Nanobody from E. coli; not shown: C-terminal c-myc and His6 tag) VHH: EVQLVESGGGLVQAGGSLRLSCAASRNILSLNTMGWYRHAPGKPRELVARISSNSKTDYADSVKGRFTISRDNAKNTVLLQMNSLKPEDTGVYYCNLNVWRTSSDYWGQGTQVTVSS	168

Switching to the query record.
Using known records, supply Binding Level sample 2 (RU) for OX40L19A07 (VHH, monovalent Nanobody from E. coli; not shown: C-terminal c-myc and His6 tag) VHH: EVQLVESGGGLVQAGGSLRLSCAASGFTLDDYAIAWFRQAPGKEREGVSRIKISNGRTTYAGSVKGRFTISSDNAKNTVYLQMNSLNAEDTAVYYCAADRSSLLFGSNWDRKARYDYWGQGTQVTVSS 160
